Where do these numbers come from? They come from paper PMC4773385.

Target: Escherichia coli LpxC (Escherichia coli, UniProt P0A725)
Sequence (P0A725 1-305): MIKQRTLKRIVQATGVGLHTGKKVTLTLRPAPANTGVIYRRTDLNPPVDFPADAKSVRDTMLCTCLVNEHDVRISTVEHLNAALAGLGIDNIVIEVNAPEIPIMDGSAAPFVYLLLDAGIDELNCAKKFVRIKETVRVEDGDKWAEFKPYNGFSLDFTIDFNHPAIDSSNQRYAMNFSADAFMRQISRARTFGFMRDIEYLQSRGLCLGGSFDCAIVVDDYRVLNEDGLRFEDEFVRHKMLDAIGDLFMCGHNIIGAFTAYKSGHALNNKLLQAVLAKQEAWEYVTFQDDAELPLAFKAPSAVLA
Experiment: LpxC enzymatic assay (radiolabelled substrate, slow tight-binding kinetics)
Assay type: biochemical
Details: E. coli LpxC, 20 pM enzyme, 5 μM substrate, 30 °C, Morrison fit; read-out: Ki* (inhibition constant of the stable EI* complex)
Method: The radiolabelled substrate for the LpxC enzymatic assays, [α-^32P] UDP-3-O-[(R)-3-hydroxymyristoyl]-N-acetylglucosamine, and the unlabelled carrier substrate were prepared as previously described. […] The KM value was determined by varying substrate concentrations from 0.4 to 50 μM with 0.2 nM of LpxC. To study the slow, tight-binding inhibition, LpxC activity was assessed in the presence of varying inhibitor concentrations. […]
pKi: −log10 of the molar value.
In this section we review reported pKi values for a set of molecules.
quantity: pKi

[
  {
    "smilesString": "CC(C)(O)[C@H](NC(=O)c1ccc(C#CC#Cc2ccc(N)cc2)cc1)C(=O)NO",
    "quantity": "pKi",
    "endpointValue": 10.85
  },
  {
    "smilesString": "C[C@](O)([C@H](NC(=O)c1ccc(C#CC#Cc2ccc(N)cc2)cc1)C(=O)NO)C(F)(F)F",
    "quantity": "pKi",
    "endpointValue": 9.90
  },
  {
    "smilesString": "CC(C)(N)[C@H](NC(=O)c1ccc(C#CC#Cc2ccc(N)cc2)cc1)C(=O)NO",
    "quantity": "pKi",
    "endpointValue": 10.92
  },
  {
    "smilesString": "C[C@@](O)(C(F)F)[C@H](NC(=O)c1ccc(C#CC#Cc2ccc(N)cc2)cc1)C(=O)NO",
    "quantity": "pKi",
    "endpointValue": 11.46
  }
]
